Parameter: half-life. Scope: all listed entries.
# Assay name: Single- and multiple-dose plasma pharmacokinetics of GA and PCA after oral RLQ in healthy subjects
# Assay type: in vivo, human
# Condition set: both sexes, human, plasma, oral, 8 g, multiple dose RLQ 8 g; read-out: t1/2 (converted)
Give the quantity in min, number only.

O=C(O)c1ccc(O)c(O)c1 [PCA, protocatechuic acid] :: 15.6

Turning now to a further record.
Exercise: Using the record for O=C(O)c1cc(O)c(O)c(O)c1 [GA, gallic acid] , report its half-life.
Solution: 80.4

* * *

Parameter: half-life. Scope: all listed entries.
# Assay name: Single- and multiple-dose plasma pharmacokinetics of GA and PCA after oral RLQ in healthy subjects
# Type: in vivo, human
# Condition set: both sexes, human, plasma, po, 8 g, abstract summary, oral RLQ; read-out: half-life

O=C(O)c1cc(O)c(O)c(O)c1 :: < 2 h

Turning now to a further record.
Exercise: Using the record for "O=C(O)c1ccc(O)c(O)c1" , report its half-life.
Solution: < 2 h

* * *

# Experimental target: MDR1 (Homo sapiens, UniProt P08183)
# Construct: host or cells: MDCK
# Sequence (P08183 whole entry): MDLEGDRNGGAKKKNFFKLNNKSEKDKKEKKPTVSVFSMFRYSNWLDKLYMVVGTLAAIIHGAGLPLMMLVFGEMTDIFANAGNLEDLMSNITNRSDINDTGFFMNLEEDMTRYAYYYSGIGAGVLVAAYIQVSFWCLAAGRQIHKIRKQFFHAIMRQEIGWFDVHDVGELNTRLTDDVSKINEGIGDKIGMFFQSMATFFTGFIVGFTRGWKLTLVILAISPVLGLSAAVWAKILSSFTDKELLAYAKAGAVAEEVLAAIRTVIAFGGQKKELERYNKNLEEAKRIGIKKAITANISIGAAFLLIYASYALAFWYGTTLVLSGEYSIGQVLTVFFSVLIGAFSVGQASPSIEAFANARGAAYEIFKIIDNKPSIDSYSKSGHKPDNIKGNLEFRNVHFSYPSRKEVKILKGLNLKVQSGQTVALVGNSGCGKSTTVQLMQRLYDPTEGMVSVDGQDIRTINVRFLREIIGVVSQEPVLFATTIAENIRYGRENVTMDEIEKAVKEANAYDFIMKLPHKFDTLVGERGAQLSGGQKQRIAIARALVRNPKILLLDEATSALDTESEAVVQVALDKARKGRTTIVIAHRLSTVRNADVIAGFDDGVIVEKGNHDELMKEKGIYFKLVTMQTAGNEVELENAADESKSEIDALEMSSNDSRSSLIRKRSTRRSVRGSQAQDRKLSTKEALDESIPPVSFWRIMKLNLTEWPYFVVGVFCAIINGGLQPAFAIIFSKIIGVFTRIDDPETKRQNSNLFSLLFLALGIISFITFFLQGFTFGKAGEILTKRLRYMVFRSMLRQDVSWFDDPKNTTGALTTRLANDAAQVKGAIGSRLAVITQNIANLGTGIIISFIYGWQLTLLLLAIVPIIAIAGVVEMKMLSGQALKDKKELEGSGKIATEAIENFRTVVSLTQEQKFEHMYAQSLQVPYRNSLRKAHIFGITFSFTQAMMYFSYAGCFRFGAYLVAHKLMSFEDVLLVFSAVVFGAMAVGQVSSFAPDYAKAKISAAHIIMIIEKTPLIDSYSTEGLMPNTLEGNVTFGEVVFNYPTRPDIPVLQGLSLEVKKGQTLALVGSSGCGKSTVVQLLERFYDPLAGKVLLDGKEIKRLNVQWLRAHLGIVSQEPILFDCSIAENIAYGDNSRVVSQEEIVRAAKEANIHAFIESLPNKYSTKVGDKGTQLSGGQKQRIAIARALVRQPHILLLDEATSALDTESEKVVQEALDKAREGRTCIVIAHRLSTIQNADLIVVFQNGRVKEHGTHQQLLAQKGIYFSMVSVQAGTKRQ
# Assay name: Inhibition of MDR1-mediated rhodamine 123 efflux in MDCK-MDR1 cells
# Type: cell-based
# Condition set: human, probe rhodamine 123 (10 µM); MDCK-MDR1 cells, PCA 1000 μg/L (6.5 µM); read-out: efflux of rhodamine 123, % of control
Endpoint: activity at 2 h, 6.5 µM

Exercise: Using the record for "O=C(O)c1ccc(O)c(O)c1" , report its activity at 2 h, 6.5 µM.
Solution: ~190%

* * *

# Assay name: Single- and multiple-dose plasma pharmacokinetics of GA and PCA after oral RLQ in healthy subjects
# Format: in vivo, human
# Condition set: both sexes, human, plasma, oral, 8 g, human plasma, single dose RLQ 8 g
Endpoint: AUC(0-inf) (ng·h/mL)
Give the quantity in ng·h/mL, number only.

O=C(O)c1cc(O)c(O)c(O)c1 [GA, gallic acid] :: 256

Turning now to a further record.
Exercise: Using the record for O=C(O)c1ccc(O)c(O)c1 [PCA, protocatechuic acid] , report its AUC(0-inf).
Solution: 3.64

* * *

# Assay name: Urinary excretion of GA and PCA after oral RLQ in healthy subjects
# Assay type: in vivo, human
# Condition set: human, urine, oral, 8 g; abstract summary; read-out: 24 h urine recovery rate
Endpoint: dose excreted

O=C(O)c1ccc(O)c(O)c1 [PCA, protocatechuic acid] :: ~5%

Turning now to a further record.
Exercise: Using the record for O=C(O)c1cc(O)c(O)c(O)c1 [GA, gallic acid] , report its dose excreted.
Solution: ~10%

* * *

Parameter: k el. Scope: all listed entries.
# Assay name: Single- and multiple-dose plasma pharmacokinetics of GA and PCA after oral RLQ in healthy subjects
# Type: in vivo, human
# Condition set: both sexes, human, plasma, oral, 8 g, single dose RLQ 8 g; read-out: ke (converted)

O=C(O)c1cc(O)c(O)c(O)c1 :: 0.000147 s⁻¹

Turning now to a further record.
Exercise: Using the record for "O=C(O)c1ccc(O)c(O)c1" , report its k el.
Solution: 0.000672 s⁻¹

* * *

# Assay name: Single- and multiple-dose plasma pharmacokinetics of GA and PCA after oral RLQ in healthy subjects
# Assay type: in vivo, human
# Condition set: male, human, plasma, oral, 8 g, single dose RLQ 8 g, male subjects; read-out: AUC0–t in men
Endpoint: AUC(0-t)

Exercise: Using the record for "O=C(O)c1cc(O)c(O)c(O)c1" , report its AUC(0-t).
Solution: 201 ng·h/mL
